FYI, the data here is from patent US20260043020A1.

Molecular target: trypsin
Experiment: phage TRF ELISA; GlyAla (Pro3Gly, Arg4Ala) mutant against the clone
OBSERVED_PROPERTY: % reduction in binding signal (%)
Give bare numbers, in %.

Recorded results for 3 binders are shown here.
stdin: Quick one: % reduction in binding signal of KB_B02 (scFv, V domains shown) VH: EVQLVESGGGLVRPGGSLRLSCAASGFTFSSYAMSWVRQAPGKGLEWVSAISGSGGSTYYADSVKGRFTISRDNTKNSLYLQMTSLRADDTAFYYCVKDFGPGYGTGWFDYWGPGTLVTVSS VL: AVNWYQQLPGKAPKLLIYAAVGCPRILMRCKQDSDCLAGCVCGPNGFCGTGSGIPERFSGSKSGNTASLTISGLQAEDEGDYYCAAWDDSLSGPVFGGGTKLTVLG ?
stdout: 98

stdin: Tell me the measured % reduction in binding signal of KB_A10 (scFv, V domains shown) VH: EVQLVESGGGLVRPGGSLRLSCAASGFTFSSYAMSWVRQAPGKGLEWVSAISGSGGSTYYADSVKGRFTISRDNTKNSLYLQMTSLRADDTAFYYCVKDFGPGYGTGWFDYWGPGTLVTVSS VL: AVNWYQQLPGKAPKLLIYAAGGCPRILMRCKQDSDCLAGCVCGPNGFCGSNSGVPDRFSGSKSGNTASLTISGLQSEDEADYYCAAWDDSLSGVVFGGGTQLTVLG , please.
stdout: 100

stdin: Fill in: % reduction in binding signal of KB_C08 (scFv, V domains shown) VH: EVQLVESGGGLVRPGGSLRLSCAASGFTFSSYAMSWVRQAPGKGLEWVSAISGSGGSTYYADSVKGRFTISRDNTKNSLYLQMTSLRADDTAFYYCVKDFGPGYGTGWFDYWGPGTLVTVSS VL: AVNWYQQLPGKAPKLLIYAAAVCPRILMRCKQDSDCLAGCVCGPNGFCGTRSGIPERFSGSKSGTSAFLAISGLRSEDEADYYCAAWDDSLSGVVFGGGTKLTVLG is ___
stdout: 100

Parameter requested: % reduction in binding signal. Apply to each item below.
1. KB_A09 (scFv, V domains shown) VH: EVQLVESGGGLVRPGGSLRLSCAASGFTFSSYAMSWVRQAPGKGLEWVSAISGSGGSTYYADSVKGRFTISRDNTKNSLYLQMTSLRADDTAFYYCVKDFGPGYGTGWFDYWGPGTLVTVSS VL: AVNWYQQLPGKAPKLLIYAAERCPRILMRCKQDSDCLAGCVCGPNGFCGTPSGVPDRFSGSIDTFSNSASLTISGLKTEDEADYYCQSYDSSHHWVFGGGTKLTVLG
2. KB_C09 (scFv, V domains shown) VH: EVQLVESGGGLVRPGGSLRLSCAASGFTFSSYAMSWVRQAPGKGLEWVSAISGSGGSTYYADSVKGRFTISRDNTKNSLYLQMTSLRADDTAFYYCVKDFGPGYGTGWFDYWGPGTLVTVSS VL: AVNWYQQLPGKAPKLLIYAAGRCPRILMRCKQDSDCLAGCVCGPNGFCGGGSGVPDRFSGSIDSSSNSASLTISGLRAEDEADYYCQSYDSSNHWVFGGGTKLTVLG
3. KB_A05 (scFv, V domains shown) VH: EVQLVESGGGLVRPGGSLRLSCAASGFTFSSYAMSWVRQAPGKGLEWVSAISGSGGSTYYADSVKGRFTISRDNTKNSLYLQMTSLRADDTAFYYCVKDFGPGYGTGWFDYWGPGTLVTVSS VL: AVNWYQQLPGKAPKLLIYAADKCPRILMRCKQDSDCLAGCVCGPNGFCGGGSGIPERFSGSKSGTSASLAISGLRSEDEADYYCATWDDNLNGVVFGGGTKLTVLG
4. KB_B10 (scFv, V domains shown) VH: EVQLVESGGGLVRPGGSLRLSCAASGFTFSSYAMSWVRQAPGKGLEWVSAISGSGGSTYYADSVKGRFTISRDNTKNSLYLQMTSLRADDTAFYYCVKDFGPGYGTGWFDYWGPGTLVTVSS VL: QSVLTQLPSVSEAPRQRVTITCGRAMCPRILMRCKQDSDCLAGCVCGPNGFCGTGNWYQQHPGKAPKLIIFDVSKRPSGVPDRFSASKSGNTASLTISGLQAEDEADYYCNSYTSSNTWVFGGGTQLTVLG

stdout:
100
100
100
100
